Sourced from paper PMC5967881

Test system: A/Washington/29/2009 (H1N1)
Experiment: microbe, parasite or virus in culture
Assay type: cell-based
Conditions: Influenza A virus, H1N1, read-out: EC50 against A/Washington/29/2009 (H1N1)
pEC50: −log10 of the molar value.
measuredParameter: pEC50

Give recorded pEC50. "Clc1ccc(-c2cc(CNC34CC5CC(CC(C5)C3)C4)no2)s1" 6.70 to 7.00
